inhibition values by entry
# Study System: Protein deacetylase HDAC6 (Homo sapiens) (UniProt Q9UBN7)
# Sequence (Q9UBN7 whole entry): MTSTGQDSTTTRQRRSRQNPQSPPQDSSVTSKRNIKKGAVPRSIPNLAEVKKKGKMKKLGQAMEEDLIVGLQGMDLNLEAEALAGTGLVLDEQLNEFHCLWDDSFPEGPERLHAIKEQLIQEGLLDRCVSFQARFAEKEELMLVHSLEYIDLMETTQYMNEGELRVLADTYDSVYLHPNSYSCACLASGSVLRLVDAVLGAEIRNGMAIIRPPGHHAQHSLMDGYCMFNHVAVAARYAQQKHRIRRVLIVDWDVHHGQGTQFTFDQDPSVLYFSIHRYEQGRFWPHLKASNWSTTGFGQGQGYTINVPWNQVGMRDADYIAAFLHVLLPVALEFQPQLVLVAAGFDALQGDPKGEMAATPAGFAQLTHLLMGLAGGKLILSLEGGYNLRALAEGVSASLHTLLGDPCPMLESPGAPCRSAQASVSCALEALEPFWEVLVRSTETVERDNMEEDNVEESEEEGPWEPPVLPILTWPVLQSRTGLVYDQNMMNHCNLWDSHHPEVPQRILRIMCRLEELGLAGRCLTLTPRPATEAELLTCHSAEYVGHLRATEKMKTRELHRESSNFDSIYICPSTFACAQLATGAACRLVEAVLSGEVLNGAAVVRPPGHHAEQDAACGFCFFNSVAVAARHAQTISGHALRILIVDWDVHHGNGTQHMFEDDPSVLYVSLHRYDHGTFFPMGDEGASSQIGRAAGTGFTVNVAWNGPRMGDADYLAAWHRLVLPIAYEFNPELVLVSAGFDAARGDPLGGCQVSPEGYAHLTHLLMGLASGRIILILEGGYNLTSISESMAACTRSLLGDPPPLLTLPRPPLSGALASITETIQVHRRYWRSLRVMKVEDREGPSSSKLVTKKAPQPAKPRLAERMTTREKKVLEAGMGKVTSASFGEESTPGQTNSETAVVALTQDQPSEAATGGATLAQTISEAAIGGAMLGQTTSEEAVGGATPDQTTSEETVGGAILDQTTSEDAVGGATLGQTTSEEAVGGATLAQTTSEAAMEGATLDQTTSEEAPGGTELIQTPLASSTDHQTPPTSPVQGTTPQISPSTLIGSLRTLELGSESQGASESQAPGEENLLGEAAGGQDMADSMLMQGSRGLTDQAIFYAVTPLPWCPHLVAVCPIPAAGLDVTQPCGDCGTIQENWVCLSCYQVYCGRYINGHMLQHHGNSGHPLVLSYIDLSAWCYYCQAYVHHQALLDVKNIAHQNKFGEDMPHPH
# Condition Info: at 10 µM
Screen size: about 5,600 compounds; about 390 (7%) showed an effect of 50% or more. For the sample, strong results were picked, then their nearest neighbours and some compounds at random.
Report the figure in % without appending any unit label.

Molecule | Assay Endpoint | Recorded Result
C[C@H](NC(=O)/C(C#N)=C/c1ccc(O)c(O)c1)c1ccccc1 | inhibition | 30.1

Quick one: inhibition for c1ccc(CNCc2ccc(CN3CCCNCCNCCCNCC3)cc2)nc1 ?
-1.23

Also need COC(=O)c1csc(C(=O)c2c[nH]c3ccccc23)n1 , thanks.
47.6

Also need CS(=O)(=O)c1ccc(-c2cc(Br)sc2-c2ccc(F)cc2)cc1 , thanks.
-5.78
